Origin of measurements: ChEMBL document CHEMBL3301361

ASSAY METHOD TEXT: physchem
CONDITION DETAILS: pH 7.4 buffer
Each entry gets not met if its solubility thermodynamic stays under 1 µM, and met if its solubility thermodynamic is 1 µM or above.

Exam item: Quick check, solubility thermodynamic >= 1 µM? `O=C(O)COc1ccc(OCCNC[C@H](O)COc2ccccc2)cc1`
Marked response: met

Exam item: Please tell me: is the compound `O=C(Cc1ccc2ccccc2c1)Nc1cc(-c2ccc(Cl)cc2)n[nH]1` at or over 1 µM in terms of solubility thermodynamic?
Marked response: not met

Exam item: Would you say `Fc1ccc(CN2CCN(C3=Nn4c(nnc4C(F)(F)F)CC3)CC2)cc1` shows solubility thermodynamic at minimum 1 µM?
Marked response: met

Exam item: # bool: solubility thermodynamic of `Cc1cc(CCC2CCN(S(=O)(=O)CC3(N(O)C=O)CCOCC3)CC2)c(C)cn1` >= 1 µM
Marked response: met
